# AIRE transcriptional activation functional score listing for each entry below
B1: library; numbered along this chain (parent)
chain: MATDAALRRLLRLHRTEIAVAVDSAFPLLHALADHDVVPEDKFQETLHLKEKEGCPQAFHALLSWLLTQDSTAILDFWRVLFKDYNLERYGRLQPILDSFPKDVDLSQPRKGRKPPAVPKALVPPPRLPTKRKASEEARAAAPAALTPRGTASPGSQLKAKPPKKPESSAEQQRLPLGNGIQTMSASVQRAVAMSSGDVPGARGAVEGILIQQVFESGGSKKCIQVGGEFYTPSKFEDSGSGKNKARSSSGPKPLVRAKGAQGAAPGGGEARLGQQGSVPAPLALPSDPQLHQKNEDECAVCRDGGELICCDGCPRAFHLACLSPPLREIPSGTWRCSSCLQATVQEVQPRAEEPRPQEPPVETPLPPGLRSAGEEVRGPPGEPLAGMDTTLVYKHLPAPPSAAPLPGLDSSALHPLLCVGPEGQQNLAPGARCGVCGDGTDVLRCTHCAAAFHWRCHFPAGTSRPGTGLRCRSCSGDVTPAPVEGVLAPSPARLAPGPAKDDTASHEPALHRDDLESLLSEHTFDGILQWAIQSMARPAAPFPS

- Variants of: B1
- experiment_summary: AIRE transcriptional activation functional score (insulin promoter-GFP; nonsense median 0, synonymous median 1) (normalised score); higher = higher AIRE activity (more reporter activation)
- condition_context: with insulin promoter-GFP reporter in HEK293
Write no unit; give the number alone.

Known results for variants:
> print(dat)
   mutation.notation  test.result
1              S338H         1.25
2               Q69L       -0.119
3               S99C         1.07

Query: Provide one value: measured AIRE transcriptional activation functional score of E354S
Response: 0.901

Query: Look up AIRE transcriptional activation functional score of Q157M and report it.
Response: 0.398

Query: Specify reported AIRE transcriptional activation functional score for the variant shown: L66R
Response: -0.171

Query: Write down AIRE transcriptional activation functional score measured for item V487L
Response: 1.03

Query: Give AIRE transcriptional activation functional score for the following variant: V348C
Response: 0.781

The values you see were collected from the supplement of paper PMC12667976.
